Where these numbers come from: patent US20160362487A1

Target: T1, human IL-33 (R&D Systems, #3625-IL-010/CF) (human, UniProt O95760 112-270)
T1 construct: Commercial recombinant protein; also called hIL-33; interleukin-33
T1 sequence (looked up): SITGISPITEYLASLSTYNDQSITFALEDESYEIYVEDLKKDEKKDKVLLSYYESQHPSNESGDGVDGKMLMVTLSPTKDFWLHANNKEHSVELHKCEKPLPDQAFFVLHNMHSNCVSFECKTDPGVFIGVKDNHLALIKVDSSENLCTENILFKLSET
Test: SPR 25C, pH6.0 chase, mAb captured
Reported t½ Ratio (pH 7.4/pH 6.0) values for the following binders.

# binder, t½ Ratio (pH 7.4/pH 6.0)
records = [
    ("H4H9640P (antibody, human IgG4, V domains shown, Human IgG4 Fc (H4H)) VH: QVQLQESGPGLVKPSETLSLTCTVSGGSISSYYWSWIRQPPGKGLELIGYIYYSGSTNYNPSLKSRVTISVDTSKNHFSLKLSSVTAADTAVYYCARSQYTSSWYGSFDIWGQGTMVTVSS VL: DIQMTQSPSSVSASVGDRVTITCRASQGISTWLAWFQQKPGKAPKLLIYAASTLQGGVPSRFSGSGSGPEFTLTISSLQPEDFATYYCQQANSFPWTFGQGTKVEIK", 2.8),
    ("H4H9633P (antibody, human IgG4, V domains shown, Human IgG4 Fc (H4H)) VH: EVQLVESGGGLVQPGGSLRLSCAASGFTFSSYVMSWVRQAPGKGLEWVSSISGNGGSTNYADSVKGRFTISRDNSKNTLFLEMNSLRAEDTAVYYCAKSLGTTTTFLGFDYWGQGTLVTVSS VL: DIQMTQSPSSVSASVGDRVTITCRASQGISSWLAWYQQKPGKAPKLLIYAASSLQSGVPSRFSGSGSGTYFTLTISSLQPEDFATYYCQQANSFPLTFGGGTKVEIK", 2.9),
    ("H4H9659P (antibody, human IgG4, V domains shown, Human IgG4 Fc (H4H)) VH: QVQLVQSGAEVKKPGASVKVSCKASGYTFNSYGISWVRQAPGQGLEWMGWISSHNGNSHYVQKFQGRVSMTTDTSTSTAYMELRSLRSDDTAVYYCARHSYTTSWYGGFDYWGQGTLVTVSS VL: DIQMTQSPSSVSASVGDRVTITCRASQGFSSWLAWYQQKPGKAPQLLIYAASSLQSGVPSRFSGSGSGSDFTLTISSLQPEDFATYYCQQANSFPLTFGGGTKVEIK", 3.9),
]
